Origin of measurements: patent US20260356840A1

- target-of-assay: human Werner helicase (Uniprot Q14191, amino acids 517-1235 with L1074F point mutation), WRN-BV08 (Homo sapiens, UniProt Q14191, L1074F)
- Construct: Uniprot Q14191, amino acids 517-1235 with L1074F point mutation; TEV cleavable 8xHis tag (C, cleaved yes)
- Sequence (Q14191 517-1235 L1074F): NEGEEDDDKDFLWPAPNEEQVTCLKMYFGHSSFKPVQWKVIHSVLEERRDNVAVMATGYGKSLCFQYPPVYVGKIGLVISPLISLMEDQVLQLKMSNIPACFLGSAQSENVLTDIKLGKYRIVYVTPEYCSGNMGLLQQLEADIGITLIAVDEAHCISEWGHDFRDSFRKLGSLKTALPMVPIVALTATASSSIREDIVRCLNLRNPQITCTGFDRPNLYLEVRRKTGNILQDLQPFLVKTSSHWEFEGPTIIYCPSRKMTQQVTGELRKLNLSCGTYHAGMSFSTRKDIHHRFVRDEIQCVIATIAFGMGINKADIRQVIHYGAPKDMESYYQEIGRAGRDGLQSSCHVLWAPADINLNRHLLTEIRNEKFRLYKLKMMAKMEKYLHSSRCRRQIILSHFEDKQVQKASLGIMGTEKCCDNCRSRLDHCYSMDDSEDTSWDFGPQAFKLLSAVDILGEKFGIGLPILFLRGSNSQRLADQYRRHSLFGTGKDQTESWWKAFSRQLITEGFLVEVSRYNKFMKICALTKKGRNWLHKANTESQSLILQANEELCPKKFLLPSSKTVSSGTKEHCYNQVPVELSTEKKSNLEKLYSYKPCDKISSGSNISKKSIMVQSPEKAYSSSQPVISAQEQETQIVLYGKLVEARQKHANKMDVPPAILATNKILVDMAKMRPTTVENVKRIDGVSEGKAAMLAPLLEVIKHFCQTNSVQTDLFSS
- measurement-description: WRN (BV08) ADP-Glo Assay
reported-property: IC50

COc1cc(-c2nc3n(CC(=O)Nc4ccc(C(F)(F)F)cc4Cl)cc(C4CCN(C(=O)c5ncnc(C)c5O)CC4)c(=O)n3n2)ccn1 ... 100 to 500 nM

**Query** Please report the recorded IC50 for CCc1c(N2CCN(C(=O)c3cnn(C)c3)CC2)c(=O)n2nc(-c3ccnc(OC)c3)nc2n1CC(=O)Nc1ccc(C(F)(F)F)cc1Cl .
**Result** < 5 nM

**Query** Moving on to CCc1c(N2CCN(C(=O)c3ccnc(OC)c3O)CC2)c(=O)n2nc(-c3ccnc(OC)c3)nc2n1CC(=O)Nc1ccc(C(F)(F)F)cc1Cl
**Result** 5 to 50 nM

* * *

Each entry below carries its recorded pIC50.
- target-of-assay: human Werner helicase (Uniprot Q14191, amino acids 517-1235 with L1074F point mutation), WRN-BV08 (Homo sapiens, UniProt Q14191, L1074F)
- Construct: Uniprot Q14191, amino acids 517-1235 with L1074F point mutation; TEV cleavable 8xHis tag (C, cleaved yes)
- measurement-description: WRN (BV08) ADP-Glo Assay
pIC50: −log10 of the molar value.

CCc1c(N2CCN(C(=O)c3c(O)cccc3F)CC2)c(=O)n2nc(C3=CCOCC3)nc2n1CC(=O)Nc1ccc(C(F)(F)F)cc1Cl ... 7.30 to 8.30
CCc1c(N2CCN(C(=O)c3cnn(C)c3)CC2)c(=O)n2nc(-c3nccc(OC)n3)nc2n1CC(=O)Nc1ccc(C(F)(F)F)cc1Cl ... 6.30 to 7.00

**Query** Requested read-out: pIC50. Entry: CCc1c(N2CCN(C(=O)C(F)(F)F)CC2)c(=O)n2nc(-c3ccnc(OC)c3)nc2n1CC(=O)Nc1ccc(C(F)(F)F)cc1Cl
**Result** 7.00 to 7.30

**Query** Entry to check: CCc1c(N2CCN(C(=O)c3cnn(C(F)F)c3)CC2)c(=O)n2nc(-c3ccnc(OC)c3)nc2n1CC(=O)Nc1ccc(C(F)(F)F)cc1Cl
**Result** 7.30 to 8.30

**Query** CCc1c(N2CCN(C(=O)c3nn(C)cc3O)CC2)c(=O)n2nc(C3CC3)nc2n1CC(=O)Nc1ccc(C(F)(F)F)cc1Cl ?
**Result** 6.30 to 7.00

**Query** CCc1c(N2CCN(C(C)=O)CC2)c(=O)n2nc(-c3cnn(CC(C)(C)O)c3)nc2n1CC(=O)Nc1ccc(C(F)(F)F)cc1Cl , same question.
**Result** 7.30 to 8.30

* * *

We begin with a simple list: items and their reported IC50.
- target-of-assay: human Werner helicase (Uniprot Q14191, amino acids 517-1235 with L1074F point mutation), WRN-BV08 (Homo sapiens, UniProt Q14191, L1074F)
- Construct: Uniprot Q14191, amino acids 517-1235 with L1074F point mutation; TEV cleavable 8xHis tag (C, cleaved yes)
- measurement-description: WRN (BV08) ADP-Glo Assay

Here are 6 compounds together with their reported answers.
CCc1c(N2CCN(C(=O)c3cnc(C)o3)CC2)c(=O)n2nc(-c3ccnc(OC)c3)nc2n1CC(=O)Nc1ccc(C(F)(F)F)cc1Cl ... 0.005 to 0.05 µM
CCc1c(N2CCN(C(=O)c3ncc4c(c3O)OCC4)CC2)c(=O)n2nc(-c3ccnc(OC)c3)nc2n1CC(=O)Nc1ccc(C(F)(F)F)cc1Cl ... < 0.005 µM
CCc1c(N2CCN(C(=O)c3cnn(C)c3)CC2)c(=O)n2nc(-c3cc(OC)ccn3)nc2n1CC(=O)Nc1ccc(C(F)(F)F)cc1Cl ... 0.005 to 0.05 µM
CCc1c(N2CCN(C(=O)c3cnn(C)c3)CC2)c(=O)n2nc(-c3cnc(OC)nc3)nc2n1CC(=O)Nc1ccc(C(F)(F)F)cc1Cl ... 0.005 to 0.05 µM
CCc1c(N2CCN(C(=O)c3cnc(C)cc3O)CC2)c(=O)n2nc(C3=CCOCC3)nc2n1CC(=O)Nc1ccc(C(F)(F)F)cc1Cl ... 0.005 to 0.05 µM
CCc1c(N2CCN(C(=O)c3c(O)cncc3F)CC2)c(=O)n2nc(C3=CCOCC3)nc2n1CC(=O)Nc1ccc(C(F)(F)F)cc1Cl ... 0.005 to 0.05 µM

**Query** Which IC50 is listed for CCc1c(N2CCN(C(=O)c3ccnc(OC)c3O)CC2)c(=O)n2nc(C3=CCOCC3)nc2n1CC(=O)Nc1ccc(C(F)(F)F)cc1Cl ?
**Result** 0.005 to 0.05 µM

**Query** Now the compound CCc1c(N2CCN(C(=O)c3cnn(C)c3)CC2)c(=O)n2nc(-c3cccnc3OC)nc2n1CC(=O)Nc1ccc(C(F)(F)F)cc1Cl
**Result** 0.005 to 0.05 µM

**Query** CCc1c(N2CCN(C(=O)CC(C)(C)O)CC2)c(=O)n2nc(C3=CCOCC3)nc2n1CC(=O)Nc1ccc(C(F)(F)F)cc1Cl ?
**Result** 0.05 to 0.1 µM

**Query** Next record, please: CCc1c(N2CCN(C(=O)C(C)(C)C#N)CC2)c(=O)n2nc(C3=CCOCC3)nc2n1CC(=O)Nc1ccc(C(F)(F)F)cc1Cl
**Result** 0.05 to 0.1 µM

**Query** And the next one, CCc1c(N2CCN(C(=O)c3ncnc(C)c3O)CC2)c(=O)n2nc(-c3ccnc(OC(F)F)c3)nc2n1CC(=O)Nc1ccc(C(F)(F)F)cc1Cl ?
**Result** 0.005 to 0.05 µM
